system: RXF 393 renal; assay: NCI-60 one-dose screen, 48 h (100 = growth as untreated, 0 = no growth, -100 = all killed); conditions: 10 µM
This is part of a sample that, as a whole, favours compounds with a hit. Of some 83,000 tested, about 20% had one in any assay.
Returns one of true (1) or false (0); true (1) when growth is >= 40%.

Reference set, count: 5
O=C(c1ccc(O)cc1)C1[C@H](c2ccc(Br)cc2)[C@@H](c2ccccc2)NC12C(=O)Nc1ccccc12 (stereo not given in full) :: false (0)
C=C(C)[C@@H]1CC[C@]2(C(=O)OC)CC[C@]3(C)[C@H](CC[C@@H]4[C@@]5(C)CC[C@H](N)C(C)(C)[C@@H]5CC[C@]43C)[C@@H]12 :: false (0)
O=C(Nc1ccc(F)c(Cl)c1)c1cc(-c2ccc(F)cc2F)ccc1O :: false (0)
O=C1CCC(N2Cc3c(C#CCCCNC(=O)c4ccc(NC(=O)[C@@H]5NC6(CCCCC6)[C@@]6(C(=O)Nc7cc(Cl)ccc76)[C@H]5c5cccc(Cl)c5F)cc4)cccc3C2=O)C(=O)N1 (stereo not given in full) :: true (1)
O=C(Nc1ccc(OCC(=O)c2ccccc2)cc1)Nc1ccc(Cl)c(C(F)(F)F)c1 :: false (0)

q: Check if growth >= 40% (inclusive). Item: NS(=O)(=O)c1ccc(N=Nc2c(O)n(CC(=O)Nc3ccccc3Br)c3ccccc23)cc1
a: false (0)

q: Check if growth >= 40% (inclusive). Item: CCN1CCN(c2ccc(NC(=O)Nc3ccc(-c4cc(C(=O)NC)c5ncccc5n4)cc3)cc2C(F)(F)F)CC1
a: false (0)

q: Check if growth >= 40% (inclusive). Item: COc1cccc2nc(Nc3ccc(F)c(NC(=O)c4ccc(CN5CCN(C)CC5)c(C(F)(F)F)c4)c3)ccc12
a: false (0)

q: Check if growth >= 40% (inclusive). Item: O=C1NC(=NC23CC4CC(CC(C4)C2)C3)N/C1=C\c1ccc2ncccc2n1
a: false (0)

q: Check if growth >= 40% (inclusive). Item: CC(=O)Nc1ccc(-n2cnc3cc(-c4ccc(O)cc4)ccc32)cc1C
a: true (1)

q: Check if growth >= 40% (inclusive). Item: O=C(N/N=C/c1ccc(-c2cccc([N+](=O)[O-])c2)o1)c1[nH]c2ccc(Br)cc2c1-c1ccccc1
a: false (0)

q: Check if growth >= 40% (inclusive). Item: COC(=O)CC1CC1C1Cc2c(nc(N(C)S(C)(=O)=O)nc2C(C)C)-c2ccc(F)cc21 (stereo not given)
a: true (1)

q: Check if growth >= 40% (inclusive). Item: CCCCCc1ccc(S(=O)(=O)N(C(C)=O)c2cc(-c3csc(N(C)C(C)=O)n3)ccc2N2CCN(C)CC2)cc1
a: false (0)

q: Check if growth >= 40% (inclusive). Item: COc1ccccc1NCc1ccc(CO)n1-c1ccc(C)cc1
a: true (1)

q: Check if growth >= 40% (inclusive). Item: CNC(=O)c1cc(-c2ccc(NC(=O)Nc3ccc(C)cc3)cc2)nc2cccnc12
a: true (1)
